B1: IRX6 (parent)
chain: YPCLEKPRIWSLAHTATASAVEGA

Variants of: B1
Assay: protein stability index of a GFP-peptide fusion (GPS, HEK-293T) (PSI 1-6); higher = more stable;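 also: lentivirally expressed fusions sorted by FACS into six bins by GFP to DsRed ratio, PSI derived from sequencing read proportions per bin multiplied by bin number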
Conditions: c terminus: a fixed tail appended
Everything with protein stability index lower than 3 is F; everything else, including exactly 3, is T.

{"columns": ["SEQ_STRING", "CATEGORY"],
 "data": [
  ["YPHLEKPRIWSLAHTATASAVEGA", "F"],
  ["YPCLEKPRIWSLAHKATASAVEGA", "T"],
  ["YPCLEKPRIWSLAHTATASTVEGA", "F"],
  ["YPCLEKPVIWSLAHTATASAVEGA", "F"],
  ["KPCLEKPRIWSLAHTATASAVEGA", "T"],
  ["YPCLEKPRIWSLAHTATASADEGA", "F"],
  ["YPTLEKPRIWSLAHTATASAVEGA", "F"],
  ["YPCLEKPRIWSLAHTETASAVEGA", "T"],
  ["YPCEEKPRIWSLAHTATASAVEGA", "F"],
  ["YPCYEKPRIWSLAHTATASAVEGA", "F"],
  ["YPCLEKPRFWSLAHTATASAVEGA", "F"]
]}
